TARGET: rNTS1 (Rattus norvegicus, UniProt P20789)
Construct: expressed in transfected cells; membrane homogenates
Sequence (P20789 whole entry): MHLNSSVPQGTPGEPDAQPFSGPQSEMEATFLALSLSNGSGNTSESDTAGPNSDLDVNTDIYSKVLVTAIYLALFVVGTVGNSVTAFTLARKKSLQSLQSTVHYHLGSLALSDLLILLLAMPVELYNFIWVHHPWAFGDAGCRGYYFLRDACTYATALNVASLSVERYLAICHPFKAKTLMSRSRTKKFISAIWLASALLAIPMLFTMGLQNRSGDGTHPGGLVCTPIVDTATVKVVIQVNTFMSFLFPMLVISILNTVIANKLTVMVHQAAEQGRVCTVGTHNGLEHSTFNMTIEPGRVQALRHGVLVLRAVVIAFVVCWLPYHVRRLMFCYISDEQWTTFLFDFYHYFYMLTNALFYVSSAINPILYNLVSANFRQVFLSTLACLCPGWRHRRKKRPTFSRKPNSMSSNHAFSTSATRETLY
PROCEDURE_SUMMARY: Competition binding of [3H]-NT to HEK293 cell membranes expressing rNTS1
REPORTED_CONDITIONS: read-out: IC50 rNTS1
pIC50: −log10 of the molar value.
MEASUREMENT_KIND: pIC50

**Q:** Which pIC50 value belongs to C[C@@H]1CN([C@H]2CC[C@](C#N)(c3ccc(F)cc3)CC2)CC[C@]1(C(=O)O)c1ccccc1 [Levocabastine, levocabastine] ?
**A:** < 5.00
